- SYSTEM NAME: human 5-HT5A receptor (Homo sapiens (Human), UniProt P47898)
- Sequence (P47898 whole entry): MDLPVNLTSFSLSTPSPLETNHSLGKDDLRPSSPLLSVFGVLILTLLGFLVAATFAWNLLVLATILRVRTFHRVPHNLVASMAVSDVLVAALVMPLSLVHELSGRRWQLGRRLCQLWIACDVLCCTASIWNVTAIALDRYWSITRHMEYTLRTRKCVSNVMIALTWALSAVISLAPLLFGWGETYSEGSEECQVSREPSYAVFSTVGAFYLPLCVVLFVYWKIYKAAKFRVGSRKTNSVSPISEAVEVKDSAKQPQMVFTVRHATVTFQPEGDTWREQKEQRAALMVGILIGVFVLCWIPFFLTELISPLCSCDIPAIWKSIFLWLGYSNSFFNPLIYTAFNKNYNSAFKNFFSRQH
- ASSAY SUMMARY: Test on a human 5-HT5A receptor binding inhibition ([3H]5-CT)
- CONDITIONS: [3H]5-CT binding, membrane from HEK293 cells expressing human 5-HT5A receptor; Ki calculated from IC50
MEASURED METRIC: Ki

>  <COMPOUND>
NC(N)=NC(=O)c1ccc2nccc(-c3c(F)cncc3F)c2c1 [Example 52]

>  <SYSTEM NAME>
human 5-HT5A receptor (Homo sapiens (Human), UniProt P47898)

>  <MEASURED>
10 to 100 nM

$$$$
>  <COMPOUND>
Cc1nc2ccc(C(=O)N=C(N)N)cc2c(-c2c(F)cccc2Cl)c1C [Example 121]

>  <SYSTEM NAME>
human 5-HT5A receptor (Homo sapiens (Human), UniProt P47898)

>  <MEASURED>
1 to 10 nM

$$$$
>  <COMPOUND>
COc1cc(C#N)ccc1-c1ccnc2ccc(C(=O)N=C(N)N)cc12 [Example 36]

>  <SYSTEM NAME>
human 5-HT5A receptor (Homo sapiens (Human), UniProt P47898)

>  <MEASURED>
10 to 100 nM

$$$$
>  <COMPOUND>
NC(N)=NC(=O)c1ccc2c(F)cnc(-c3cccc(F)c3Cl)c2c1 [Example 200]

>  <SYSTEM NAME>
human 5-HT5A receptor (Homo sapiens (Human), UniProt P47898)

>  <MEASURED>
1 to 10 nM

$$$$
>  <COMPOUND>
NC(N)=NC(=O)c1ccc2cncc(-c3ccc(F)cc3F)c2c1 [Example 228]

>  <SYSTEM NAME>
human 5-HT5A receptor (Homo sapiens (Human), UniProt P47898)

>  <MEASURED>
10 to 100 nM

$$$$

Task item: Consider the compound shown here: NC(N)=NC(=O)c1ccc2c(F)cnc(-c3ccc(Cl)cc3)c2c1 [Example 191] What is its recorded Ki?
Reply: 10 to 100 nM

Task item: Now consider NC(N)=NC(=O)c1ccc2c(F)cnc(-c3ccccc3Cl)c2c1 [Example 161] and answer again.
Reply: 1 to 10 nM

Task item: Now consider COc1cccc(F)c1-c1ncc(F)c2ccc(C(=O)N=C(N)N)cc12 [Example 159] and answer again.
Reply: 1 to 10 nM

Task item: Now consider Cc1cc(C(=O)N=C(N)N)cc2c(-c3c(F)cc(F)cc3F)ccnc12 [Example 39] and answer again.
Reply: 1 to 10 nM

====

- SYSTEM NAME: human 5-HT5A receptor (Homo sapiens (Human), UniProt P47898)
- ASSAY SUMMARY: Test on a human 5-HT5A receptor binding inhibition ([3H]5-CT)
- CONDITIONS: [3H]5-CT binding, membrane from HEK293 cells expressing human 5-HT5A receptor; Ki calculated from IC50
// values below are reported Ki

Sample records with Ki:
>  <COMPOUND STRUCTURE>
NC(N)=NC(=O)c1ccc2c(Cl)cnc(-c3ccccc3F)c2c1

>  <SYSTEM NAME>
human 5-HT5A receptor (Homo sapiens (Human), UniProt P47898)

>  <Ki>
1 to 10 nM

$$$$
>  <COMPOUND STRUCTURE>
NC(N)=NC(=O)c1cc(Cl)c2nccc(-c3c(F)cc(F)cc3F)c2c1

>  <SYSTEM NAME>
human 5-HT5A receptor (Homo sapiens (Human), UniProt P47898)

>  <Ki>
10 to 100 nM

$$$$
>  <COMPOUND STRUCTURE>
COc1cc(F)c(-c2ccnc3c(C)cc(C(=O)N=C(N)N)cc23)c(F)c1

>  <SYSTEM NAME>
human 5-HT5A receptor (Homo sapiens (Human), UniProt P47898)

>  <Ki>
1 to 10 nM

$$$$

Task item: Consider the compound shown here: "Cc1cc(-c2c(F)cc(F)cc2F)c2cc(C(=O)N=C(N)N)cc(C)c2n1" What is its recorded Ki?
Reply: 1 to 10 nM

Task item: Now consider "NC(N)=NC(=O)c1ccc2c(Cl)cnc(-c3ccc(F)cc3F)c2c1" and answer again.
Reply: 1 to 10 nM
